B1: SOAT1 (parent)
chain: PSNGRIDIKQLIAKKIKLTAEAEE

Variants of: B1
Test: protein stability index of a GFP-peptide fusion (GPS, HEK-293T) (PSI 1-6); higher = more stable;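 note: lentivirally expressed fusions sorted by FACS into six bins by GFP to DsRed ratio, PSI derived from sequencing read proportions per bin multiplied by bin number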
Settings: c terminus: a fixed tail appended
MEASURE NAME: protein stability index

Example entries begin here.
K15E :: 4.52
Q10N :: 3.21
E21V :: 2.59
I16H :: 3.78
K9M :: 2.99

Challenge: Which measured protein stability index value corresponds to `E23P` ?
Response given: 2.88

Challenge: And for `I12Y` ?
Response given: 3.19

Challenge: And for `G4H` ?
Response given: 3.36

Challenge: And for `S2Q` ?
Response given: 3.63

Challenge: And for `K9E` ?
Response given: 4.03

Challenge: And for `I12F` ?
Response given: 3.5

Challenge: And for `K9C` ?
Response given: 3.25

Challenge: And for `G4I` ?
Response given: 3.18

Challenge: And for `D7W` ?
Response given: 3.46

Challenge: And for `T19F` ?
Response given: 1.98

Challenge: And for `N3D` ?
Response given: 4.38

Challenge: And for `E23F` ?
Response given: 1.75

Challenge: And for `E21N` ?
Response given: 3.13

Challenge: And for `D7I` ?
Response given: 3.08

Challenge: And for `K15H` ?
Response given: 3.17

Challenge: And for `K14L` ?
Response given: 2.24

Challenge: And for `L11R` ?
Response given: 3.93
